- Test system: MCF7
- ASSAY_EXPLANATION: Cytotoxicity against human MCF7 cells after 48 hrs
- Format: functional, cell-based
- ASSAY_CONTEXT: MCF7, 48 h
ASSAY_METRIC: pIC50
On this scale, pIC50 is minus log10 of a concentration expressed in M (mol/L).

C[C@@H]1CC[C@]2(C(=O)O)CC[C@]34C[C@]3(C=C[C@@H]3[C@@]5(C)C[C@@H](O)[C@H](O)C(C)(C)[C@@H]5CC[C@]34C)[C@@H]2[C@]1(C)O 5.44

Please report pIC50 with MCF7 for item `C[C@@H]1CC[C@]2(C(=O)O)CC[C@]34C[C@]3(C=C[C@@H]3[C@@]5(C)C[C@@H](O)[C@@H](O)C(C)(C)[C@@H]5CC[C@]34C)[C@@H]2[C@]1(C)O` .
4.80
